Answer each item with its documented PBM E-score.
assayed system: Ecm22 (UniProt Q05958)
Sequence: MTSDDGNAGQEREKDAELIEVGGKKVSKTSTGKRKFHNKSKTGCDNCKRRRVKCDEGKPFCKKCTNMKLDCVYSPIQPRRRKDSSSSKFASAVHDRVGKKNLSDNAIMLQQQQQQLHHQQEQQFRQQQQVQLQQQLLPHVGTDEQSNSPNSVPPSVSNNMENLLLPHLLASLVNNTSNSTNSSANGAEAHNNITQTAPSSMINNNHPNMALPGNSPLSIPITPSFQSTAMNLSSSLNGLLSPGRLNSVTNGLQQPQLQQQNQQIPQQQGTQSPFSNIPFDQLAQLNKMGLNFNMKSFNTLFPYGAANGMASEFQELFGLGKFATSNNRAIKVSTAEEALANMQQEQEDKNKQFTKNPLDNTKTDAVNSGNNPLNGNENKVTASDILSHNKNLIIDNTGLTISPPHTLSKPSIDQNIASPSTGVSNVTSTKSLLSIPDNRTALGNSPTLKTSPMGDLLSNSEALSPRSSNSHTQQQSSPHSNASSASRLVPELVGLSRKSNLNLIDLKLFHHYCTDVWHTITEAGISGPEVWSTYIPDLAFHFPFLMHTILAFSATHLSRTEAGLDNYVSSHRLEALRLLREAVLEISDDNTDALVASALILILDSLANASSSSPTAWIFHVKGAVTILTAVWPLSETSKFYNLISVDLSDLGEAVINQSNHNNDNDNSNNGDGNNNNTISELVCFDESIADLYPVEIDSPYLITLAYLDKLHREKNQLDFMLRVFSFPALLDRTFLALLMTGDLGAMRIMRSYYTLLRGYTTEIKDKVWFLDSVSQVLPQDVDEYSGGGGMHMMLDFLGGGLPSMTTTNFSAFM
assay text: PBM E-score (8-mer binding enrichment) (E-score (-0.5 to 0.5)); higher = stronger / more preferred TF binding
particulars: protein concentration: 200 nM; construct: GST-full length
In all, about 33,000 sequences were measured (“E-score (-0.5 to 0.5)”: median about -0.041, highest 2% from about 0.37 on). Only a selection was taken, and the highest values are over-represented in it overall.
Hey, just send me the number, nothing else.

Find the recorded PBM E-score belonging to `TGAATTAA` and report it.
0.099

Find the recorded PBM E-score belonging to `CAGGAACA` and report it.
-0.0447

Find the recorded PBM E-score belonging to `AAGAAAAC` and report it.
0.0702

Find the recorded PBM E-score belonging to `CCGCTTAA` and report it.
0.291

Find the recorded PBM E-score belonging to `CAGATGGA` and report it.
0.0554

Find the recorded PBM E-score belonging to `GACGATAA` and report it.
0.0921

Find the recorded PBM E-score belonging to `CCATTGGA` and report it.
-0.162

Find the recorded PBM E-score belonging to `GCATAGGC` and report it.
-0.178

Find the recorded PBM E-score belonging to `GCTACCTA` and report it.
-0.156

Find the recorded PBM E-score belonging to `TCGCTTAA` and report it.
0.394

Find the recorded PBM E-score belonging to `GCGCTTAA` and report it.
0.0179

Find the recorded PBM E-score belonging to `CCATCGTA` and report it.
0.428

Find the recorded PBM E-score belonging to `AATTGCTA` and report it.
-0.0544

Find the recorded PBM E-score belonging to `CGATAAAC` and report it.
0.259

Find the recorded PBM E-score belonging to `AACCGAAT` and report it.
0.284
